# EXPERIMENTAL TARGET: δ opiate receptor (Rattus norvegicus)
# Construct: The rat brain, which was freshly prepared in each case, was homogenized; from tissue; host or cells: brain of male Wistar rats, without the cerebellum, pons and medulla oblongata (membrane homogenate)
# Sequence (P33533 whole entry): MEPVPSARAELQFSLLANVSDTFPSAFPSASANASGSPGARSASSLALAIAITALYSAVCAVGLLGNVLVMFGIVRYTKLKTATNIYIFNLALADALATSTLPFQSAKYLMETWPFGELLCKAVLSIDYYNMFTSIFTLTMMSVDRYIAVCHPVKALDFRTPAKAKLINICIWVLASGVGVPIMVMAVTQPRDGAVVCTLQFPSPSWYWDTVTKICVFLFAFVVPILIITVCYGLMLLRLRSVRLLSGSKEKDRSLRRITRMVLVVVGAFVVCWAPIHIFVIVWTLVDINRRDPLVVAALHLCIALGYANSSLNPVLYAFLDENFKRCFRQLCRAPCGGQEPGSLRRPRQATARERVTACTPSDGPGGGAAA
# ASSAY PROCEDURE: δ opiate receptor binding (displacement of (3H)-2-D-ala-deltorphin II, rat brain membrane homogenate)
# Set-up: species or system male Wistar rats
# EXPERIMENTAL PARAMETERS: mean values ± standard deviations of ≥3 independent tests; 1 nmole/l (3H)-2-D-ala-deltorphin II; pH 7.4; 90 minutes at 37° C.; Ki from IC50 by Cheng-Prussoff equation
pKi: −log10 of the molar value. Counter-ions that a name gives are not always drawn.
Returns 1.0 if the recorded pKi is greater than or equal to 7, and 0.0 otherwise.

1) CCCN(CCC)CC1=C(c2cccc(O)c2)c2ccccc2CCC1 : 0.0
2) CN(C)CC1=C(c2cccc(O)c2)c2ccccc2CCCC1 : 1.0
3) CN(CC1=C(c2cccc(O)c2)c2ccccc2CCC1)Cc1ccccc1 [Example 2e, hydrochloride] : 0.0
4) CN(CCc1ccccc1)CC1=C(c2cccc(O)c2)c2ccccc2CCC1 [Example 2d, hydrochloride] : 1.0
5) COc1ccc2c(c1)CCC(CN(C)C)=C2c1ccccc1 [Example 3, hydrochloride] : 0.0
6) CN(C)CC1=C(c2cccc(O)c2)c2ccc(O)cc2CC1 [Example 6, hydrochloride] : 1.0
7) CCCCc1ccc2c(c1)C(c1cccc(O)c1)=C(CN(C)C)CC2 [Example 9c, hydrochloride] : 1.0
8) CCN(CC)CC1=C(c2cccc(O)c2)c2ccccc2CCC1 [Example 2b, hydrochloride] : 0.0
9) CN(C)CC1=C(c2cccc(O)c2)c2cc(-c3ccccc3)ccc2CC1 [Example 9b, hydrochloride] : 1.0
10) CN(C)CC1=C(c2cccc(O)c2)c2ccccc2CCC1 [Example 2a, hydrochloride] : 1.0
11) CC(CN(C)C)=C(c1cccc(O)c1)c1cccc(O)c1 [Example 11a, hydrochloride] : 1.0
12) COc1cccc2c1CCC(CN(C)C)=C2c1ccccc1 [Example 4, hydrochloride] : 0.0
13) C/C(CN(C)C)=C(\c1ccc(-c2ccccc2)cc1)c1cccc(O)c1 [Example 11b, hydrochloride] : 1.0
14) CN(CC1=C(c2cccc(O)c2)c2ccccc2CCC1)CC1CC1 [Example 2g, hydrochloride] : 0.0
15) COc1cccc2c1CCC(CN(C)C)=C2c1cccc(O)c1 [Example 9a, hydrochloride] : 1.0
16) CN(C)CC1=C(c2cccc(O)c2)c2cc(Oc3ccccc3)ccc2CC1 [Example 8, hydrochloride] : 1.0
17) CN(C)CC1=C(c2cccc(O)c2)c2ccccc2CC1 [Example 1, hydrochloride] : 1.0
18) CN(CCc1ccccn1)CC1=C(c2cccc(O)c2)c2ccccc2CCC1 [Example 2h, dihydrochloride] : 0.0
19) C=CCN(C)CC1=C(c2cccc(O)c2)c2ccccc2CCC1 [Example 10, hydrochloride] : 0.0

Cited source: patent US6022895A
